# System: Erythrocyte
# experimentNotes: Anti-inflammatory activity in human RBC assessed as inhibition of hypotonic solution-induced hemolysis after 10 mins by spectrophotometric method
# Type: functional, cell-based
I'd be grateful if you could share measured IC50 for these entries.
Write down the numeric answer in µg/mL and omit the unit.

Reported IC50, compound COc1ccc(/C=N\Nc2nc3cccc(C)c3s2)cc1Br : ____ 58.6

Reported IC50, compound Cc1cccc2nc(N/N=C\c3ccc(Br)cc3Br)sc12 : ____ 10.1

Reported IC50, compound Cc1cccc2nc(N/N=C\c3ccc([N+](=O)[O-])cc3)sc12 : ____ 24.1

Reported IC50, compound COc1ccc(/C=N\Nc2nc3cccc(C)c3s2)cc1O : ____ 56.2

Reported IC50, compound Cc1cccc2nc(N/N=C\c3ccccc3)sc12 : ____ 80.1

Reported IC50, compound Cc1cccc2nc(N/N=C\c3ccc(F)cc3F)sc12 : ____ 16.1

Reported IC50, compound Cc1cccc2nc(N/N=C\c3ccc(O)cc3)sc12 : ____ 60

Reported IC50, compound Cc1cccc2nc(N/N=C/c3cc4ccccc4[nH]3)sc12 : ____ 30.2

Reported IC50, compound Cc1cccc2nc(N/N=C\c3ccc(Br)cc3)sc12 : ____ 20.1

Reported IC50, compound Cc1ccc(/C=N\Nc2nc3cccc(C)c3s2)cc1 : ____ 54.3

Reported IC50, compound Cc1cccc2nc(N/N=C/c3ccc[nH]3)sc12 : ____ 46.2

Reported IC50, compound Cc1cccc2nc(N/N=C\c3ccc(F)cc3)sc12 : ____ 32.1

Reported IC50, compound Cc1cccc2nc(N/N=C/CC(C)C)sc12 : ____ 90.7

Reported IC50, compound COc1ccc(/C=N\Nc2nc3cccc(C)c3s2)cc1 : ____ 72.7

Reported IC50, compound Cc1cccc2nc(N/N=C\c3ccc(Oc4ccccc4)cc3)sc12 : ____ 60.9

Reported IC50, compound COc1ccc2c(c1)c(CC(=O)O)c(C)n2C(=O)c1ccc(Cl)cc1 [INDOMETHACIN] : ____ 40

Reported IC50, compound Cc1cccc2nc(N/N=C/c3ccco3)sc12 : ____ 50.1

Reported IC50, compound Cc1cccc2nc(N/N=C\c3ccc(O)c(Br)c3)sc12 : ____ 52.4

Reported IC50, compound CCCCCC/C=N/Nc1nc2cccc(C)c2s1 : ____ 82.2

Reported IC50, compound COc1ccc(/C=N\Nc2nc3cccc(C)c3s2)c(OC)c1 : ____ 68.1

Reported IC50, compound COc1cc(/C=N\Nc2nc3cccc(C)c3s2)cc(Br)c1O : ____ 56.4

Reported IC50, compound Cc1cccc2nc(N/N=C\c3ccc(O)cc3O)sc12 : ____ 58.2

Reported IC50, compound Cc1cccc2nc(N/N=C\c3ccc(Cl)cc3)sc12 : ____ 28.7

Reported IC50, compound Cc1cccc2nc(N/N=C\c3ccc(Cl)cc3Cl)sc12 : ____ 18.2

Reported IC50, compound Cc1cccc2nc(N/N=C\c3ccncc3)sc12 : ____ 54.2
